target: PD-1/PD-L1 (Homo sapiens); assay: PD-1/PD-L1 biochemical protein-protein interaction assay (ALPHA); conditions: 0.3 nM His tagged PD-L1, 2.5 nM biotinylated Fc-PD-1, 60 minutes at 25° C., read-out: IC50 PD-L1-PD-1 Alpha IC50-mono PD-L1-fcP-D1
Measured Attribute: IC50 (nM)

1. Cc1c(-c2ccc(OCCNC[C@@H](O)CC(=O)O)cc2)cccc1-c1cccc2c1CC[C@@H]2Oc1nc(OCCCC#N)c(CNC[C@@H](O)CC(=O)O)cc1Br
0.051
2. Cc1c(COc2cc(OCc3cncc(C#N)c3)c(CNC[C@@H](O)C(=O)O)cc2Cl)cccc1-c1cccc(COc2cc(OCc3cncc(C#N)c3)c(CNC[C@@H](O)C(=O)O)cc2Cl)c1C
2.8
3. Cc1c(COc2cc(OCc3cncc(C#N)c3)c(CN3CC[C@@H](O)C3)cc2Cl)cccc1-c1cccc(-c2ccc(CN3CC(CC(=O)O)C3)cc2)c1C
1.3
4. C[C@@](CO)(NCc1ccc(O[C@H]2CCc3c(-c4cccc(-c5ccc(CNC[C@@H]6CCC(=O)N6)cc5)c4Cl)cccc32)nc1OCc1cncc(C#N)c1)C(=O)O
0.064
5. COc1nc(O[C@H]2CCc3c(-c4cccc(-c5cnc(CN[C@@H]6CCC[C@@H]6O)c(OC)n5)c4Cl)cccc32)c(Cl)cc1CNC[C@@H]1CCC(=O)N1
1.89

* * *

target: PD-1/PD-L1 (Homo sapiens, UniProt Q9NZQ7); assay: PD-1/PD-L1 biochemical protein-protein interaction assay (ALPHA); conditions: 0.3 nM His tagged PD-L1, 2.5 nM biotinylated Fc-PD-1, 60 minutes at 25° C., read-out: IC50 PD-L1-PD-1 Alpha IC50-mono PD-L1-fcP-D1
Sequence (Q9NZQ7 19-238 limits assumed): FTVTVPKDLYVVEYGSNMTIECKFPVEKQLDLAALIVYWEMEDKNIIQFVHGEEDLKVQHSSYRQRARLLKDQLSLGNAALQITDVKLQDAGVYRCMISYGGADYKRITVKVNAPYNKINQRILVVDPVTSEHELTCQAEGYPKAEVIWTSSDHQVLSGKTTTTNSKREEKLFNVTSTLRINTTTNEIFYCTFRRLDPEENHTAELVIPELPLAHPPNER
# note: exactly 0.1 nM is not below, so it is Not fulfilled; use Fulfilled for IC50 strictly under it

1) COc1nc(O[C@H]2CCc3c(-c4cccc5c4CC[C@@H]5Oc4ccc(CNC[C@@H](O)CC(=O)O)c(OCc5cncc(C#N)c5)n4)cccc32)c(Br)cc1CNC[C@@H](O)CC(=O)O
Not fulfilled
2) COc1nc(OCc2cccc(-c3cccc(-c4ccc5c(c4)C[C@@H](N)C5)c3Cl)c2Cl)c(Br)cc1CN[C@@](C)(CO)C(=O)O
Not fulfilled
3) CC(C)(NCc1cc(Br)c(OCc2cccc(-c3cccc(-c4ccc5c(c4)C[C@@H](N)C5)c3Cl)c2Cl)nc1OCc1cncc(C#N)c1)C(=O)O
Fulfilled
4) Cc1c(COc2cc(OCc3cncc(C#N)c3)c(CNC[C@@H](O)CC(=O)O)cc2Cl)cccc1-c1cccc(-c2ccc(OCCN3CC4(CCC(=O)N4)C3)cc2)c1C
Fulfilled
5) Cc1c(COc2cc(OCc3cncc(C#N)c3)c(CNC[C@@H](O)CC(=O)O)cc2Cl)cccc1-c1cccc(-c2ncc(COCCNC[C@@H](O)CC(=O)O)s2)c1C
Not fulfilled
6) Cc1c(COc2cc(OCc3cncc(C#N)c3)c(CN3CCCCC3)cc2Cl)cccc1-c1cccc(COc2cc(OCc3cncc(C#N)c3)c(CN3CCCCC3)cc2Cl)c1C
Not fulfilled
7) Cc1c(COc2cc(OCc3cncc(C#N)c3)c(CNC[C@@H](O)CO)cc2Br)cccc1-c1cccc(COc2cc(OCc3cncc(C#N)c3)c(CNC[C@@H](O)CO)cc2Br)c1C
Not fulfilled
8) COc1nc(-c2ccc(-c3cccc(-c4ccc(CNC[C@@H]5CCC(=O)N5)c(OC)n4)c3Cl)s2)ccc1CNC[C@@H]1CCC(=O)N1
Not fulfilled
9) COc1nc(O[C@H]2CCc3c(-c4cccc(-c5ccc(CNC[C@@H]6CCC(=O)N6)c(OCC#N)c5)c4Cl)cccc32)c(Cl)cc1CNC[C@@H]1CCC(=O)N1
Not fulfilled
10) COc1nc(-c2cccc(-c3cccc4c3CC[C@@H]4Oc3nc(OC)c(CN[C@@](C)(CO)C(=O)O)cc3Br)c2Br)ccc1CNC[C@@H]1CCC(=O)N1
Fulfilled
